The origin of these recorded values is patent US20230113037A1.

Measured IC50 values are reported for all entries that follow.
# systemName: AHR (Homo sapiens, UniProt P35869)
# Construct: U87 MG glioblastoma cells (ATCC #HTB-14) endogenously expressing AHR; endogenous in cells; host or cells: U87 MG glioblastoma cells (ATCC #HTB-14)
# procedureText: In vitro assay 1: antagonism in human cell line (AHR transactivation, firefly luciferase reporter, kynurenic acid prestimulated)
# Assay type: cell-based
# assayContext: AHR Antagonism Human IC50 [M]
Hi! Could you send only the number? It should be in M, unit omitted.

Consider the reported IC50 for these compounds:
- CC[C@@H](Nc1nc2ccccc2c2nc(-c3ccccc3)nn12)C(N)=O [Example 4]: 1.68e-09
- O=C1NCCCCCC1Nc1nc2ccccc2c2nc(-c3ccccc3OC(F)(F)F)nn12 (centres unmarked) [Example 461]: 6.18e-09
- COc1ccc(-c2nc3c4cccc(C5(C)CC5)c4nc(N[C@@H]4CCCCNC4=O)n3n2)cc1 [Example 399]: 1.85e-08
- COc1ccc(-c2nc3c4cccc(OCCC(F)(F)F)c4nc(N[C@@H]4CCCCNC4=O)n3n2)cc1 [Example 670]: 2.78e-07
- COc1cccc2c1nc(N[C@@H]1CCCCNC1=O)n1nc(-c3cnn(C4CCC4)c3)nc21 [Example 758]: 1.35e-08

From here, focus on the item given below.
Query: IC50; subject: CCNC(=O)C(CC)Nc1nc2ccccc2c2nc(-c3ccccc3OC(F)(F)F)nn12 (centres unmarked) [Example 463] 2.94e-08

###

# systemName: AHR (Homo sapiens, UniProt P35869)
# Construct: U87 MG glioblastoma cells (ATCC #HTB-14) endogenously expressing AHR; endogenous in cells; host or cells: U87 MG glioblastoma cells (ATCC #HTB-14)
# Sequence (P35869 11-848): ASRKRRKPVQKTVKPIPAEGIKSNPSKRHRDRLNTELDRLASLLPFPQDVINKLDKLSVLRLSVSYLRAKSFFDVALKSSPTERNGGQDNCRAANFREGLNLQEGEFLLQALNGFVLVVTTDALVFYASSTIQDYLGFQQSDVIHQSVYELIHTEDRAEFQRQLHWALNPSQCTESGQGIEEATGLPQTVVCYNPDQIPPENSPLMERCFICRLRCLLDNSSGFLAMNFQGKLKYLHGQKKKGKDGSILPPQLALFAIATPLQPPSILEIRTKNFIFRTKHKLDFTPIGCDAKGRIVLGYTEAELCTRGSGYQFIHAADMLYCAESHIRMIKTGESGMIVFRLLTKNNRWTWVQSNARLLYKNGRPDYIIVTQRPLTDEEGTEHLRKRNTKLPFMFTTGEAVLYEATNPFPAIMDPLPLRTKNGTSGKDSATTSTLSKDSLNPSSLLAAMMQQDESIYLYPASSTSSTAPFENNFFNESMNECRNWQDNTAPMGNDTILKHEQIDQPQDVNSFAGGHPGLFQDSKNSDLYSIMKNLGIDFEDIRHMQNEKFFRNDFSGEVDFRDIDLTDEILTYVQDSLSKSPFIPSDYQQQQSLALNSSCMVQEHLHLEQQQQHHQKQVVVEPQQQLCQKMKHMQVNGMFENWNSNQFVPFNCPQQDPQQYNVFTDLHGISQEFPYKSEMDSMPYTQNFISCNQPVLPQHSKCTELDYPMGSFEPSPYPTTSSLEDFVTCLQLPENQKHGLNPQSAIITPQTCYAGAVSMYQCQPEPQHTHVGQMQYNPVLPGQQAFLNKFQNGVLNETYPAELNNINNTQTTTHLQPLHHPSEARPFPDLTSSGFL
# procedureText: In vitro assay 1: antagonism in human cell line (AHR transactivation, firefly luciferase reporter, kynurenic acid prestimulated)
# Format: cell-based
# assayContext: AHR Antagonism Human IC50 [M], firefly luciferase reporter
assayReadout: IC50 (M)
Form entry: value (M) — number only.

- C[C@@H]1CN(C(=O)[C@@H](C)Nc2nc3c(Br)cccc3c3nc(-c4cnn(C)c4)nn23)CCN1C: 2.4e-08

Sample N#Cc1cccc2c1nc(N[C@@H]1CNCCNC1=O)n1nc(-c3cnn(C(F)F)c3)nc21 — what was its IC50? 2.39e-07

Which value of IC50 has been reported for CNCCNC(=O)[C@@H](C)Nc1nc2ccccc2c2nc(-c3ccc(OC)cc3)nn12 in the records? 4.29e-08

Need IC50 of Cn1cc(-c2nc3c4cccc(C#N)c4nc(N[C@@H]4CNCCNC4=O)n3n2)cn1 , thanks. 5.21e-06

Would you kindly share the measured IC50 for COc1ccc(-c2nc3c4c(CO)cccc4nc(N[C@@H]4CCCCNC4=O)n3n2)cc1 ? 1.86e-09

Record request: IC50 value, item O=C1NCCNC[C@H]1Nc1nc2c(Br)cccc2c2nc(-c3cnn(C(F)F)c3)nn12 2.03e-09

###

The compounds listed here are annotated with their pIC50.
# systemName: AHR (Mus musculus)
# Sequence (P30561 1-848 P471L/N533S/M589L): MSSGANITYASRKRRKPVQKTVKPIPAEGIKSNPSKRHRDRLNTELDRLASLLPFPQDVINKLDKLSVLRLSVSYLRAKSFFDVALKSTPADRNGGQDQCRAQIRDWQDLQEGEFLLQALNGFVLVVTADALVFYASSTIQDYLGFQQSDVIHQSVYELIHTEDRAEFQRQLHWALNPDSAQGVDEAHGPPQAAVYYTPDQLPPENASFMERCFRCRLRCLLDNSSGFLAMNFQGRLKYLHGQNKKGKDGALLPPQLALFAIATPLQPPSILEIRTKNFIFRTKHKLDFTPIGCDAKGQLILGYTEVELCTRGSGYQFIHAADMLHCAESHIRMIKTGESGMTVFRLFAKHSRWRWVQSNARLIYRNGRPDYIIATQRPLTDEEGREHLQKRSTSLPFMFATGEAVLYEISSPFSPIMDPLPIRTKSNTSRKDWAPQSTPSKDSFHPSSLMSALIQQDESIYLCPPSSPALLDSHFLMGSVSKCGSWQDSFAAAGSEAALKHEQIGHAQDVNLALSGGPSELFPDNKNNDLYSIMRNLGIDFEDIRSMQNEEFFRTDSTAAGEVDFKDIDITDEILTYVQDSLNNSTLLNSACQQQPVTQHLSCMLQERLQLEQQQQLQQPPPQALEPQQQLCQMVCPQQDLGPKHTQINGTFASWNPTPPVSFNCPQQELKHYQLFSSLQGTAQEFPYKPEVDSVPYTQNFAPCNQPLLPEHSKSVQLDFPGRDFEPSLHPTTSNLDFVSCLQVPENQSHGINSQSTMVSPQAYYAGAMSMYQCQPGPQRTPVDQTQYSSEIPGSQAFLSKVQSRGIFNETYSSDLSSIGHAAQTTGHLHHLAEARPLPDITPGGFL
# procedureText: In vitro assay 3: antagonism in mouse cell line (AHR transactivation, firefly luciferase reporter, kynurenic acid prestimulated)
# Format: cell-based
# assayContext: mouse Hepa 1c1c7 cells, 200 μM kynurenic acid, 20 hours, read-out: AHR Antagonism Mouse IC50
Recall that pIC50 is obtained by taking minus log10 of the concentration measured in molar.

Guide cases for pIC50, answers given:
- O=C1NCCC[C@H]1Nc1nc2ccccc2c2nc(-c3ccncc3F)nn12: 5.50
- COc1ccc(-c2nc3c4c(OC)cccc4nc(N[C@@H]4CNCCNC4=O)n3n2)cc1: 5.57
- COc1ccc(-c2nc3c4ccccc4nc(N[C@H](C)C(=O)NC(C)C)n3n2)cc1: 7.34
- COc1cccc(-c2nc3c4ccccc4nc(N[C@H](C)C(=O)NCCO)n3n2)c1: 7.80

Recorded pIC50 for N#Cc1ccc(-c2nc3c4cccc(Br)c4nc(N[C@@H]4CNCCNC4=O)n3n2)cc1 with AHR (Mus musculus), please? 9.02

For the record COc1ccc(-c2nc3c4ccccc4nc(N[C@H](CO)C(N)=O)n3n2)cc1 , what value of pIC50 is listed for AHR (Mus musculus)? 7.78

###

// reported IC50 for each item listed
# systemName: AHR (Mus musculus)
# procedureText: In vitro assay 3: antagonism in mouse cell line (AHR transactivation, firefly luciferase reporter, kynurenic acid prestimulated)
# Assay type: cell-based
# assayContext: Hepa 1c1c7 cells, 200 μM kynurenic acid, 20 hours, firefly luciferase reporter, read-out: AHR Antagonism Mouse IC50
// units = nM; emit number, no label

Previously resolved entries follow.
- O=C1NCCNC[C@H]1Nc1nc2c(C3CC3)cccc2c2nc(-c3cnn(CC4CC4)c3)nn12: 341
- Cc1nn(C)cc1-c1nc2c3cccc(Br)c3nc(N[C@@H]3CNCCNC3=O)n2n1: 10.9
- COc1ccc(-c2nc3c4cccc(S(C)(=N)=O)c4nc(N[C@@H]4CCCCNC4=O)n3n2)cc1 (single isomer, unassigned) [Example 854]: 147
- CNCCNC(=O)[C@@H](C)Nc1nc2c(Br)cccc2c2nc(-c3cnn(C)c3)nn12 [Example 989]: 399

Which IC50 value belongs to COc1ccc(-c2nc3c4cccc(Br)c4nc(N[C@H](C)C(=O)NCCN4CCCCC4)n3n2)cc1 ? 17.3
